The measured values listed here are drawn from patent US20070218064A1.

- test.system: T1, recombinant human IL-23 (hrIL-23), produced at Centocor (human, UniProt P29460 23-328)
- T1 sequence 1: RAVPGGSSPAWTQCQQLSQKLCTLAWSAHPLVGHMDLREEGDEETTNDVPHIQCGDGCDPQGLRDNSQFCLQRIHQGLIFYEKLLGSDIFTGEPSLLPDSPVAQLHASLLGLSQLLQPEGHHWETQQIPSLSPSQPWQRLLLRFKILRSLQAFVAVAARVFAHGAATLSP
- T1 sequence 2: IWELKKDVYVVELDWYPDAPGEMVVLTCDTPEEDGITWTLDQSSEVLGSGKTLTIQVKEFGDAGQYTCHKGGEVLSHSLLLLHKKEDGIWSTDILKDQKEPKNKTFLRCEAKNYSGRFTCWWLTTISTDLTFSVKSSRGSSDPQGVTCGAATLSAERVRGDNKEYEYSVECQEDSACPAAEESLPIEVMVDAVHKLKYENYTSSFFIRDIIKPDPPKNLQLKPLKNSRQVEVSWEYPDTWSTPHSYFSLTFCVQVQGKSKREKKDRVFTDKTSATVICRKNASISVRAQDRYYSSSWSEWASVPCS
- test.protocol: cell-based or functional assay
Binary call on Inhibition of IL-17 production, IC50: satisfied from 0.2 µg/mL upward, not satisfied beneath that.

binder	answer.label
mAb MOR05055 (antibody, IgG1, V domains shown) VH: QVELVESGGGLVQPGGSLRLSCAASGFTFSSFGMSWVRQAPGKGLEWVSNIGTYASVKGRFTISRDNSKNTLYLQMNSLRAEDTAVYYCARYWGTPYLMQFDNWGQGTLVTVSS VL: DIALTQPASVSGSPGQSITISCTGTSSDVGGYNSVSWYQQHPGKAPKLMIYSVSSRPSGVSNRFSGSKSGNTASLTISGLQAEDEADYYCSSYDTNKPLVVFGGGTKLTVL	not satisfied
mAb MOR05049 (antibody, IgG1, V domains shown) VH: QVELVESGGGLVQPGGSLRLSCAASGFTFSSFGMSWVRQAPGKGLEWVSITYASVKGRFTISRDNSKNTLYLQMNSLRAEDTAVYYCARYWGTPYLMQFDNWGQGTLVTVSS VL: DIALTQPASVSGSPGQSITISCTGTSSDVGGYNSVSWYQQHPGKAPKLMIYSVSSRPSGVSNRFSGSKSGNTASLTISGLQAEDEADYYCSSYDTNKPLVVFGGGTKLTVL	not satisfied
mAb MOR05031 (antibody, IgG1, V domains shown) VH: QVELVQSGAEVKKPGSSVKVSCKASGGTFSSNYISWVRQAPGQGLEWMGGIIPIFGHANYAQKFQGRVTITADESTSTAYMELSSLRSEDTAVYYCARSKKGMYGGWTYPLMMFDLWGQGTLVTVSS VL: DIVLTQSPATLSLSPGERATLSCRASQSVSSNYLAWYQQKPGQAPRLLIYYASRRATGVPARFSGSGSGTDFTLTISSLEPEDFAYYCQQTPFTFGQGTKVEIK	satisfied
mAb MOR05045 (antibody, IgG1, V domains shown) VH: QVELVQSGAEVKKPGESLKISCKGSGYSFSNYWIGWVRQMPGKGLEWMGIIPSTYSPSFQGQVTISADKSISTAYLQWSSLKASDTAMYYCARWYYKPFDVWGQGTLVTVSS VL: DIVLTQPPSVSGAPGQRVTISCTGSSSNIGSGYDVHWYQQLPGTAPKLLIYGNSKRPSGVPDRFSGSKSGTSASLAITGLQSEDEADYYCSSWTPSSVVFGGGTKLTVL	not satisfied

API: above_or_equal(metric=Inhibition of IL-17 production, IC50, cutoff=0.2 µg/mL) for item mAb MOR05039 (antibody, IgG1, V domains shown) VH: QVELVESGGGLVQPGGSLRLSCAASGFTFSSFGMSWVRQAPGKGLEWVSNITYYASVKGRFTISRDNSKNTLYLQMNSLRAEDTAVYYCARYWGTPYLMQFDNWGQGTLVTVSS VL: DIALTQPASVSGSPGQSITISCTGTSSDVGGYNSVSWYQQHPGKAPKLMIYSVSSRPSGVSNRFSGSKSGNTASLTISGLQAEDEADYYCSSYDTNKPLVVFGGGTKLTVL not satisfied
